Test system: Staphylococcus epidermidis
Test Description: Antibacterial activity against methicillin-susceptible, inducible MLS-resistant Staphylococcus epidermidis E 1 by broth microdilution method
Assay type: functional
We begin with a simple list: items and their reported log10 MIC.
Readout: log10 MIC (log10 of the value in µg/mL)

Compound String	log10 MIC
CC[C@H]1OC(=O)[C@H](C)C(=O)[C@H](C)[C@@H](O[C@@H]2O[C@H](C)C[C@H](N(C)C)[C@H]2O)[C@](C)(OC)C[C@@H](C)/C(=N\OCC#Cc2cccnc2)[C@H](C)[C@H]2OC(=O)O[C@@]21C	-0.90
CC[C@H]1OC(=O)[C@H](C)C(=O)[C@H](C)[C@@H](O[C@@H]2O[C@H](C)C[C@H](N(C)C)[C@H]2O)[C@](C)(OC)C[C@@H](C)/C(=N\OCC#Cc2cncnc2)[C@H](C)[C@H]2OC(=O)O[C@@]21C	-1.19
CC[C@H]1OC(=O)[C@H](C)C(=O)[C@H](C)[C@@H](O[C@@H]2O[C@H](C)C[C@H](N(C)C)[C@H]2O)[C@](C)(OC)C[C@@H](C)/C(=N\OCC#Cc2ccnc3ccccc23)[C@H](C)[C@H]2OC(=O)O[C@@]21C	-0.60
CC[C@H]1OC(=O)[C@H](C)C(=O)[C@H](C)[C@@H](O[C@@H]2O[C@H](C)C[C@H](N(C)C)[C@H]2O)[C@](C)(OC)C[C@@H](C)/C(=N\OCC#Cc2ccccn2)[C@H](C)[C@H]2OC(=O)O[C@@]21C	-0.90
CC[C@H]1OC(=O)[C@H](C)C(=O)[C@H](C)[C@@H](O[C@@H]2O[C@H](C)C[C@H](N(C)C)[C@H]2O)[C@](C)(OC)C[C@@H](C)/C(=N\OC/C=C/c2cnc3ccccc3c2)[C@H](C)[C@H]2OC(=O)O[C@@]21C	-1.49
CC[C@H]1OC(=O)[C@H](C)C(=O)[C@H](C)[C@@H](O[C@@H]2O[C@H](C)C[C@H](N(C)C)[C@H]2O)[C@](C)(OC)C[C@@H](C)/C(=N\OCC#Cc2ccc(C(=O)c3ccccc3)s2)[C@H](C)[C@H]2OC(=O)O[C@@]21C	0.30
CC[C@H]1OC(=O)[C@H](C)C(=O)[C@H](C)[C@@H](O[C@@H]2O[C@H](C)C[C@H](N(C)C)[C@H]2O)[C@](C)(OC)C[C@@H](C)/C(=N\OCC#Cc2cnc3ccccc3c2)[C@H](C)[C@H]2OC(=O)O[C@@]21C	-0.60
CC[C@H]1OC(=O)[C@H](C)C(=O)[C@H](C)[C@@H](O[C@@H]2O[C@H](C)C[C@H](N(C)C)[C@H]2O)[C@](C)(OC)C[C@@H](C)/C(=N\OCCCc2cnc3ccccc3c2)[C@H](C)[C@H]2OC(=O)O[C@@]21C	-0.30
CC[C@H]1OC(=O)[C@H](C)C(=O)[C@H](C)[C@@H](O[C@@H]2O[C@H](C)C[C@H](N(C)C)[C@H]2O)[C@](C)(OC)C[C@@H](C)/C(=N\OCC#Cc2cccc3cnccc23)[C@H](C)[C@H]2OC(=O)O[C@@]21C	-1.19
CC[C@H]1OC(=O)[C@H](C)C(=O)[C@H](C)[C@@H](O[C@@H]2O[C@H](C)C[C@H](N(C)C)[C@H]2O)[C@](C)(OC)C[C@@H](C)/C(=N\OCCCc2cncc3ccccc23)[C@H](C)[C@H]2OC(=O)O[C@@]21C	-0.60
CC[C@H]1OC(=O)[C@H](C)C(=O)[C@H](C)[C@@H](O[C@@H]2O[C@H](C)C[C@H](N(C)C)[C@H]2O)[C@](C)(OC)C[C@@H](C)/C(=N\OCC#Cc2cccs2)[C@H](C)[C@H]2OC(=O)O[C@@]21C	0.00
CC[C@H]1OC(=O)[C@H](C)C(=O)[C@H](C)[C@@H](O[C@@H]2O[C@H](C)C[C@H](N(C)C)[C@H]2O)[C@](C)(OC)C[C@@H](C)/C(=N\OCC#Cc2ccc3ncccc3c2)[C@H](C)[C@H]2OC(=O)O[C@@]21C	-1.49
CC[C@H]1OC(=O)[C@H](C)C(=O)[C@H](C)[C@@H](O[C@@H]2O[C@H](C)C[C@H](N(C)C)[C@H]2O)[C@](C)(OC)C[C@@H](C)/C(=N\OCC#Cc2cncc3ccccc23)[C@H](C)[C@H]2OC(=O)O[C@@]21C	-1.80
CC[C@H]1OC(=O)[C@H](C)C(=O)[C@H](C)[C@@H](O[C@@H]2O[C@H](C)C[C@H](N(C)C)[C@H]2O)[C@](C)(OC)C[C@@H](C)/C(=N\OCC#Cc2ccc3[nH]ccc3c2)[C@H](C)[C@H]2OC(=O)O[C@@]21C	0.30
CC[C@H]1OC(=O)[C@H](C)C(=O)[C@H](C)[C@@H](O[C@@H]2O[C@H](C)C[C@H](N(C)C)[C@H]2O)[C@](C)(OC)C[C@@H](C)/C(=N\OCC#Cc2ccc(-c3ccccn3)s2)[C@H](C)[C@H]2OC(=O)O[C@@]21C	0.60
